molecular target: Beta-secretase 1 (Homo sapiens, UniProt P56817)
Sequence (P56817 whole entry): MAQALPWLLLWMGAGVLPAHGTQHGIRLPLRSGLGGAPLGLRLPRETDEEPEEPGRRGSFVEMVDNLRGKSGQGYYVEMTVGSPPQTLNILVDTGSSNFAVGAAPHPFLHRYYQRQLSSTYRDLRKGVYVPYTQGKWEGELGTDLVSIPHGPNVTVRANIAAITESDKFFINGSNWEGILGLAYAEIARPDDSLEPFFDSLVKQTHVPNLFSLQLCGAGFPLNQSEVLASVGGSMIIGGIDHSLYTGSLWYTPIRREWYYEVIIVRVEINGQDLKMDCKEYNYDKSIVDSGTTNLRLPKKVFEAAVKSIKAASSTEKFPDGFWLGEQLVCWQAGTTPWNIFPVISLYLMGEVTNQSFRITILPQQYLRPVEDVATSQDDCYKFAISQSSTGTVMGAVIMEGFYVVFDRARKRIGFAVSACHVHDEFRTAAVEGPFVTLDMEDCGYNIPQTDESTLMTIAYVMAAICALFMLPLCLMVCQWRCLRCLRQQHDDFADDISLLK
Please respond with 1 (yes) when measured IC50 is strictly beneath 2000 nM, and with 0 (no) in all other cases.

Use these answered entries as a reference point.
# smiles-code, group-label
records = [
    ("COc1cc(O)c2c(=O)cc(-c3ccc(O)c(-c4c(O)cc(O)c5c(=O)cc(-c6ccc(O)cc6)oc45)c3)oc2c1", "1 (yes)"),
    ("COc1cc(O)c2c(=O)cc(-c3ccc(O)cc3)oc2c1-c1cc(-c2cc(=O)c3c(O)cc(O)cc3o2)ccc1O", "1 (yes)"),
    ("COc1ccc(-c2cc(=O)c3c(O)cc(OC)c(-c4cc(-c5cc(=O)c6c(O)cc(OC)cc6o5)ccc4O)c3o2)cc1", "0 (no)"),
    ("COc1ccc(-c2cc(=O)c3c(O)cc(O)c(-c4cc(-c5cc(=O)c6c(O)cc(OC)cc6o5)ccc4O)c3o2)cc1", "0 (no)"),
    ("O=c1cc(-c2ccc(O)c(-c3c(O)cc(O)c4c(=O)cc(-c5ccc(O)cc5)oc34)c2)oc2cc(O)cc(O)c12", "1 (yes)"),
]

Now take the following molecule into account.
Problem: Is IC50 of `COc1ccc(-c2cc(=O)c3c(O)cc(O)c(-c4cc(-c5cc(=O)c6c(O)cc(O)cc6o5)ccc4OC)c3o2)cc1` strictly below 2000 nM?
Result: 0 (no)

* * *

Target or system UniProtKB P56817: recorded pIC50 listed per item.
Answer as the number alone; pIC50 is minus log10 of concentration in mol/L.

Known results for compounds:
# smiles-code, pIC50
measured = [
    ("COc1ccc(-c2cc(=O)c3c(O)cc(O)cc3o2)cc1-c1c(O)cc(O)c2c(=O)cc(-c3ccc(O)cc3)oc12", 5.69),
    ("COc1cc(O)c2c(=O)cc(-c3ccc(OC)c(-c4c(O)cc(O)c5c(=O)cc(-c6ccc(O)cc6)oc45)c3)oc2c1", 5.38),
]

Then this compound:
Problem: Need pIC50, item `COc1ccc([C@@H]2CC(=O)c3c(cc(OC)c(C)c3O)O2)cc1-c1c(O)cc(O)c2c(=O)cc(-c3ccc(O)cc3)oc12`
Result: 6.46

* * *

biological target: Beta-secretase 1 (Homo sapiens, UniProt P56817)
In this section, each of the molecules is paired with its reported IC50.

# smiles-code, IC50
rows = [
    ("O=c1cc(-c2ccc(O)cc2)oc2c(-c3c(O)cc(O)c4c(=O)cc(-c5ccc(O)cc5)oc34)c(O)cc(O)c12", "> 10 µM"),
]

Problem: Need IC50, item `O=c1cc(-c2ccc(O)c(-c3c(O)cc4oc(-c5ccc(O)cc5)cc(=O)c4c3O)c2)oc2cc(O)cc(O)c12`
Result: > 10 µM

Problem: Need IC50, item `COc1ccc(-c2cc(=O)c3c(O)cc(OC)c(-c4cc(-c5cc(=O)c6c(O)cc(OC)cc6o5)ccc4OC)c3o2)cc1`
Result: > 10 µM
